Tested Target: Peroxisome proliferator-activated receptor alpha (Homo sapiens, UniProt Q07869, T279M)
Sequence (Q07869 whole entry T279M): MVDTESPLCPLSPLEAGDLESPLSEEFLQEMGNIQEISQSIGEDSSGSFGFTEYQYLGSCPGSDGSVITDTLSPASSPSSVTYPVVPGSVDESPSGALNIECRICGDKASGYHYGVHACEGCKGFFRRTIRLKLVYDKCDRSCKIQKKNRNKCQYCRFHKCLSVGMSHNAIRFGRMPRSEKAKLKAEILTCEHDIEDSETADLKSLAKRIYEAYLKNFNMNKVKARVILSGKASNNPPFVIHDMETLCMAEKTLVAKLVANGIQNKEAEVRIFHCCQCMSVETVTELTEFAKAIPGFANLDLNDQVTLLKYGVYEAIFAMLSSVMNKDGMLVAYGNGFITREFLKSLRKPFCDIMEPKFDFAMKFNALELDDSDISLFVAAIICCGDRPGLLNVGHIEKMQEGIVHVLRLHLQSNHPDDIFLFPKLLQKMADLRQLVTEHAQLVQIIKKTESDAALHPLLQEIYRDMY
Assay: Transcriptional activation activity on human T279M-mutant Peroxisome proliferator activated receptor alpha expressed in CHO-K1 cells
Assay type: cell-based
Measured Parameter: EC50 (µM)

smiles_code=CC[C@@H](Cc1ccc(OC)c(OCCc2ccc(C(F)(F)F)cc2)c1)C(=O)O unit=µM readout_value=16.1

1. CC[C@@H](Cc1ccc(OC)c(C(=O)NCc2ccccc2)c1)C(=O)O
2. CC[C@@H](Cc1ccc(OC)c(C(=O)NCc2ccc(C(F)(F)F)cc2)c1)C(=O)O
3. CC[C@@H](Cc1ccc(OC)c(C(=O)NCc2ccc(Oc3ccc(F)cc3)cc2)c1)C(=O)O
Ordering criterion: EC50; begin with the maximum. Output the labels ranked as instructed.
1, 2, 3

The measurements presented in this section are drawn from ChEMBL document CHEMBL1136221.
